All values here come from ChEMBL document CHEMBL5143655.

assay_remarks: Plasma protein binding in human plasma at 10 uM incubated for 6 hrs by LC-MS/MS based equilibrium dialysis method
Format: ADME, cell-free
applied_conditions: read-out: PPB (converted)
measurement_type: fraction unbound at 6 h, 10 µM

1) CC(=O)N1CCN(c2ccc(OCC3COC(Cn4ccnc4)(c4ccc(Cl)cc4Cl)O3)cc2)CC1 (configuration not stated) ... 0.0128
2) Cc1cc(C)cc(-n2nc(-c3ccc(C(F)(F)F)cc3O)nc2-c2ccccc2O)c1 ... 0.0006

====

assay_remarks: Cytotoxicity against rat PC-12 cells assessed as reduction in cell viability by MTT assay
Assay type: toxicity, cell-based
pIC50: −log10 of the molar value.
Each item that follows carries a reported pIC50.
measurement_type: pIC50

1. Cc1ccc(-n2nc(-c3ccc(C(F)(F)F)cc3O)nc2-c2ccccc2O)cc1 ... 3.95
2. Cc1cc(C)cc(-n2nc(-c3ccc(C(F)(F)F)cc3O)nc2-c2ccccc2O)c1 ... 3.58
3. CC(C)c1ccc(-n2nc(-c3ccc(C(F)(F)F)cc3O)nc2-c2ccccc2O)cc1 ... 3.84
4. Oc1cc(C(F)(F)F)ccc1-c1nc(-c2ccccc2O)n(-c2cc(F)cc(F)c2)n1 ... 4.27
5. Oc1cc(C(F)(F)F)ccc1-c1nc(-c2ccccc2O)n(-c2cccc(C(F)(F)F)c2)n1 ... 4.30
6. Oc1cc(C(F)(F)F)ccc1-c1nc(-c2ccccc2O)n(-c2ccc(Br)cc2)n1 ... 4.18
7. Cc1ccc(-n2nc(-c3ccc(C(F)(F)F)cc3O)nc2-c2ccccc2O)c(C)c1 ... 3.64
8. COc1cccc(-n2nc(-c3ccc(C(F)(F)F)cc3O)nc2-c2ccccc2O)c1 ... 4.25
9. Oc1cc(C(F)(F)F)ccc1-c1nc(-c2ccccc2O)n(-c2ccc(I)cc2)n1 ... 4.14
10. CCc1ccc(-n2nc(-c3ccc(C(F)(F)F)cc3O)nc2-c2ccccc2O)cc1 ... 3.83
